# System: Exserohilum rostratum
# method_notes: Antifungal activity against Setosphaeria rostrata at 1200 ug/ml after 48 hr
# Type: functional
# condition_info: read-out: IZ
endpoint_label: zone of inhibition at 1200 µg/mL (mm)
Expressed in mm, but write only the number.

• Brc1cccc(-c2nnc(CN3CCC(n4nc5ccccc5n4)CC3)o2)c1 = 15.1

Look up and state reported zone of inhibition at 1200 µg/mL for O=[N+]([O-])c1ccc(-c2nnc(CN3CCC(n4nc5ccccc5n4)CC3)o2)cc1Cl
23

Look up and state reported zone of inhibition at 1200 µg/mL for CC(C)(C)c1cc(-c2nnc(CN3CCC(n4nc5ccccc5n4)CC3)o2)cc(C(C)(C)C)c1
29.8

Look up and state reported zone of inhibition at 1200 µg/mL for Cc1c(Br)cccc1-c1nnc(CN2CCC(n3nc4ccccc4n3)CC2)o1
23.9

Look up and state reported zone of inhibition at 1200 µg/mL for Fc1cccc(-c2nnc(CN3CCC(n4nc5ccccc5n4)CC3)o2)c1F
29.8

Look up and state reported zone of inhibition at 1200 µg/mL for c1ccc(-c2nnc(CN3CCC(n4nc5ccccc5n4)CC3)o2)cc1
24

Look up and state reported zone of inhibition at 1200 µg/mL for CCC(C)n1ncn(-c2ccc(N3CCN(c4ccc(OCC5COC(Cn6cncn6)(c6ccc(Cl)cc6Cl)O5)cc4)CC3)cc2)c1=O (centres undefined) [ITRACONAZOLE]
29.6

Look up and state reported zone of inhibition at 1200 µg/mL for COc1cccc(-c2nnc(CN3CCC(n4nc5ccccc5n4)CC3)o2)c1
19.2

Look up and state reported zone of inhibition at 1200 µg/mL for Cc1ccc(-c2nnc(CN3CCC(n4nc5ccccc5n4)CC3)o2)cc1Br
17.2

====

zone of inhibition at 600 µg/mL overview
# Tested on: Bacillus pumilus
# method_notes: Antibacterial activity against Bacillus pumilus at 600 ug/ml after overnight incubation
# Assay type: functional
# condition_info: read-out: IZ
Expressed in mm, but write only the number.

Examples with answers:
* Cc1ccc(-c2nnc(CN3CCC(n4nc5ccccc5n4)CC3)o2)cc1Br | 3.32
* Fc1cccc(-c2nnc(CN3CCC(n4nc5ccccc5n4)CC3)o2)c1F | 3.35
* CC(C)(C)c1cc(-c2nnc(CN3CCC(n4nc5ccccc5n4)CC3)o2)cc(C(C)(C)C)c1 | 4.56

Look up and state reported zone of inhibition at 600 µg/mL for O=[N+]([O-])c1ccc(-c2nnc(CN3CCC(n4nc5ccccc5n4)CC3)o2)cc1Cl
3.46

Look up and state reported zone of inhibition at 600 µg/mL for Cc1c(Br)cccc1-c1nnc(CN2CCC(n3nc4ccccc4n3)CC2)o1
4.29

====

# System: Fusarium oxysporum
# method_notes: Antifungal activity against Fusarium oxysporum at 600 ug/ml after 48 hr
# Format: functional
# condition_info: read-out: IZ
Kind request: treat 7 mm as inclusive, so zone of inhibition at 600 µg/mL at 7 mm or higher is TRUE, anything lower is FALSE.

- COc1cccc(-c2nnc(CN3CCC(n4nc5ccccc5n4)CC3)o2)c1: FALSE
- CC(C)(C)c1cc(-c2nnc(CN3CCC(n4nc5ccccc5n4)CC3)o2)cc(C(C)(C)C)c1: TRUE
- Cc1c(Br)cccc1-c1nnc(CN2CCC(n3nc4ccccc4n3)CC2)o1: FALSE
- c1ccc(-c2nnc(CN3CCC(n4nc5ccccc5n4)CC3)o2)cc1: FALSE

Exam item: decide whether the reported zone of inhibition at 600 µg/mL for CCC(C)n1ncn(-c2ccc(N3CCN(c4ccc(OCC5COC(Cn6cncn6)(c6ccc(Cl)cc6Cl)O5)cc4)CC3)cc2)c1=O (centres undefined) [ITRACONAZOLE] is at least 7 mm.
TRUE

Exam item: decide whether the reported zone of inhibition at 600 µg/mL for Brc1cccc(-c2nnc(CN3CCC(n4nc5ccccc5n4)CC3)o2)c1 is at least 7 mm.
TRUE

Exam item: decide whether the reported zone of inhibition at 600 µg/mL for O=[N+]([O-])c1ccc(-c2nnc(CN3CCC(n4nc5ccccc5n4)CC3)o2)cc1Cl is at least 7 mm.
TRUE

Exam item: decide whether the reported zone of inhibition at 600 µg/mL for Cc1ccc(-c2nnc(CN3CCC(n4nc5ccccc5n4)CC3)o2)cc1Br is at least 7 mm.
TRUE

====

# System: Bacillus pumilus
# method_notes: Antibacterial activity against Bacillus pumilus at 900 ug/ml after overnight incubation
# Format: functional
# condition_info: read-out: IZ
endpoint_label: zone of inhibition at 900 µg/mL (mm)
Expressed in mm, but write only the number.

Examples with answers:
- CC(C)(C)c1cc(-c2nnc(CN3CCC(n4nc5ccccc5n4)CC3)o2)cc(C(C)(C)C)c1: 9.95
- c1ccc(-c2nnc(CN3CCC(n4nc5ccccc5n4)CC3)o2)cc1: 8.65
- Cc1ccc(-c2nnc(CN3CCC(n4nc5ccccc5n4)CC3)o2)cc1Br: 6.56
- CN[C@@H]1[C@H](O[C@H]2[C@H](O[C@H]3[C@H](O)[C@@H](O)[C@H](N=C(N)N)[C@@H](O)[C@@H]3N=C(N)N)O[C@@H](C)[C@]2(O)C=O)O[C@@H](CO)[C@H](O)[C@H]1O [STREPTOMYCIN]: 14.5
- COc1cccc(-c2nnc(CN3CCC(n4nc5ccccc5n4)CC3)o2)c1: 11.2
- Brc1cccc(-c2nnc(CN3CCC(n4nc5ccccc5n4)CC3)o2)c1: 8.12

Look up and state reported zone of inhibition at 900 µg/mL for Fc1cccc(-c2nnc(CN3CCC(n4nc5ccccc5n4)CC3)o2)c1F
7.24

Look up and state reported zone of inhibition at 900 µg/mL for Cc1c(Br)cccc1-c1nnc(CN2CCC(n3nc4ccccc4n3)CC2)o1
8.54

Look up and state reported zone of inhibition at 900 µg/mL for O=[N+]([O-])c1ccc(-c2nnc(CN3CCC(n4nc5ccccc5n4)CC3)o2)cc1Cl
7.25

====

# Tested on: Bacillus pumilus
# method_notes: Antibacterial activity against Bacillus pumilus at 600 ug/ml after overnight incubation
# Format: functional
# condition_info: read-out: IZ
zone of inhibition at 600 µg/mL overview
Expressed in mm, but write only the number.

• COc1cccc(-c2nnc(CN3CCC(n4nc5ccccc5n4)CC3)o2)c1 = 5.56

Look up and state reported zone of inhibition at 600 µg/mL for Brc1cccc(-c2nnc(CN3CCC(n4nc5ccccc5n4)CC3)o2)c1
4.25

Look up and state reported zone of inhibition at 600 µg/mL for CN[C@@H]1[C@H](O[C@H]2[C@H](O[C@H]3[C@H](O)[C@@H](O)[C@H](N=C(N)N)[C@@H](O)[C@@H]3N=C(N)N)O[C@@H](C)[C@]2(O)C=O)O[C@@H](CO)[C@H](O)[C@H]1O
7.25

Look up and state reported zone of inhibition at 600 µg/mL for c1ccc(-c2nnc(CN3CCC(n4nc5ccccc5n4)CC3)o2)cc1
4.25

====

zone of inhibition at 1200 µg/mL overview
# Test system: Fusarium oxysporum
# method_notes: Antifungal activity against Fusarium oxysporum at 1200 ug/ml after 48 hr
# Type: functional
# condition_info: read-out: IZ
Expressed in mm, but write only the number.

Examples with answers:
- O=[N+]([O-])c1ccc(-c2nnc(CN3CCC(n4nc5ccccc5n4)CC3)o2)cc1Cl: 31.4
- CC(C)(C)c1cc(-c2nnc(CN3CCC(n4nc5ccccc5n4)CC3)o2)cc(C(C)(C)C)c1: 33.8
- Brc1cccc(-c2nnc(CN3CCC(n4nc5ccccc5n4)CC3)o2)c1: 29.9
- Cc1c(Br)cccc1-c1nnc(CN2CCC(n3nc4ccccc4n3)CC2)o1: 24.9
- CCC(C)n1ncn(-c2ccc(N3CCN(c4ccc(OCC5COC(Cn6cncn6)(c6ccc(Cl)cc6Cl)O5)cc4)CC3)cc2)c1=O (centres undefined): 39.6

Look up and state reported zone of inhibition at 1200 µg/mL for Fc1cccc(-c2nnc(CN3CCC(n4nc5ccccc5n4)CC3)o2)c1F
25.4

Look up and state reported zone of inhibition at 1200 µg/mL for c1ccc(-c2nnc(CN3CCC(n4nc5ccccc5n4)CC3)o2)cc1
21.3

Look up and state reported zone of inhibition at 1200 µg/mL for COc1cccc(-c2nnc(CN3CCC(n4nc5ccccc5n4)CC3)o2)c1
21.3

Look up and state reported zone of inhibition at 1200 µg/mL for Cc1ccc(-c2nnc(CN3CCC(n4nc5ccccc5n4)CC3)o2)cc1Br
26.9

====

# Tested on: Exserohilum rostratum
# method_notes: Antifungal activity against Setosphaeria rostrata at 300 ug/ml after 48 hr
# Format: functional
# condition_info: read-out: IZ
zone of inhibition at 300 µg/mL overview
Expressed in mm, but write only the number.

Examples with answers:
* Cc1ccc(-c2nnc(CN3CCC(n4nc5ccccc5n4)CC3)o2)cc1Br | 3.25
* O=[N+]([O-])c1ccc(-c2nnc(CN3CCC(n4nc5ccccc5n4)CC3)o2)cc1Cl | 2.95
* COc1cccc(-c2nnc(CN3CCC(n4nc5ccccc5n4)CC3)o2)c1 | 3.32

Look up and state reported zone of inhibition at 300 µg/mL for Cc1c(Br)cccc1-c1nnc(CN2CCC(n3nc4ccccc4n3)CC2)o1
2.98

Look up and state reported zone of inhibition at 300 µg/mL for Brc1cccc(-c2nnc(CN3CCC(n4nc5ccccc5n4)CC3)o2)c1
3.98
